TEST_DESCRIPTION: Stability with time of a second solution of a permanent waving composition containing a direct dye (storage at 45° C.)
Format: physicochemical
RUN_CONDITIONS: absorbance at maximum wavelength, initial value defined as 100%
MEASURED_QUANTITY: Ratio of dye that remains solubilized after 4 weeks at 45° C. (%)

# example entries with known answers
> print(dat)
                                   compound  observed
1              Cn1cc[n+](C)c1N=Nc1ccc(N)cc1     102.0
2  Cc1ccc(Nc2ccc(O)c3c2C(=O)c2ccccc2C3=O)c(S(=O)(=O)[O-])c1.[Na+]      92.2
3                  O=[N+]([O-])c1ccccc1NCCO      97.6
4         COc1ccc(N(C)N=Cc2cc[n+](C)cc2)cc1      99.6

1 = O=S(=O)([O-])c1ccc(N=Nc2c(O)ccc3ccccc23)cc1.[Na+]
2 = O=[N+]([O-])c1cc(N(CCO)CCO)ccc1NCCO
// task: argmin of Ratio of dye that remains solubilized after 4 weeks at 45° C. over [ 1 , 2 ] To answer, give the label that identifies your chosen option.
2
(2: 0.00%, 1: 98.7%)

----------
TEST_DESCRIPTION: Stability with time of a second solution of a permanent waving composition containing a direct dye (storage at 45° C.)
Assay type: physicochemical
RUN_CONDITIONS: 0.2% dye in second solution, initial
MEASURED_QUANTITY: pH (45° C.) Initial

> print(dat)
                                   compound  observed
1                  O=[N+]([O-])c1ccccc1NCCO      6.43
2  Cc1ccc(Nc2ccc(O)c3c2C(=O)c2ccccc2C3=O)c(S(=O)(=O)[O-])c1.[Na+]      6.54
3         COc1ccc(N(C)N=Cc2cc[n+](C)cc2)cc1      6.43
4  O=S(=O)([O-])c1ccc(N=Nc2c(O)ccc3ccccc23)cc1.[Na+]      6.44
5              Cn1cc[n+](C)c1N=Nc1ccc(N)cc1      6.41
6  Nc1c(N=Nc2ccc([N+](=O)[O-])cc2)c(S(=O)(=O)[O-])cc2cc(S(=O)(=O)[O-])c(N=Nc3ccccc3)c(O)c12.[Na+].[Na+]      6.43
7       O=[N+]([O-])c1cc(N(CCO)CCO)ccc1NCCO      6.43

----------
TEST_DESCRIPTION: Dyeability test of second solution containing a dye on goat hair
Design: key: ⊚: Deeply dyed and an original white color of the goat hair is not prominent; ◯: Dyed to a degree that an original white color of the goat hair is not prominent; Δ: Dyed, but prominent in an original white color of the goat hair; X: Only an original white color of the goat hair
RUN_CONDITIONS: first solution 30° C. 15 minutes, then second solution with 0.2% dye
MEASURED_QUANTITY: Dyeability

> print(dat)
                                   compound  observed
1  Nc1c(N=Nc2ccc([N+](=O)[O-])cc2)c(S(=O)(=O)[O-])cc2cc(S(=O)(=O)[O-])c(N=Nc3ccccc3)c(O)c12.[Na+].[Na+]         ◯
2         COc1ccc(N(C)N=Cc2cc[n+](C)cc2)cc1         ⊚
3  Cc1ccc(Nc2ccc(O)c3c2C(=O)c2ccccc2C3=O)c(S(=O)(=O)[O-])c1.[Na+]         X
4              Cn1cc[n+](C)c1N=Nc1ccc(N)cc1         ⊚

Data provenance is patent US6863883B1.
